B1: Unconventional myosin-Ie, residues 1051 to 1108; numbered along this chain, Q12965 (parent)
chain: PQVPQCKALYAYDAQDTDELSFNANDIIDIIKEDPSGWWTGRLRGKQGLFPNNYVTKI

- Variants of: B1
- ASSAY EXPLANATION: abundance fitness (aPCA) (normalised: wild type 0, dead -1); higher = more abundant; growth selection in yeast, the domain comes from the species named
- RUN PARAMETERS: Homo sapiens
In this section we review reported abundance fitness values for a set of variants.
TEST READOUT: abundance fitness

D18W	-0.2
A8F	-0.619
W39G	-0.453
P1R	-0.362
F22I	-0.409
N23Y	-0.155
S21V	-0.891
D18N	-0.055
E19A	-0.288
P1H	0.305
D34R	-0.173
Q2Y	-0.373
A8K	-0.902
D13H	-0.16
A8M	-0.817
D29N	-0.277
D13C	-0.134
N53Q	-0.07
D13S	-0.189
Y10F	-0.151
K57W	-0.554
N52C	-0.515
L20Q	-1.12
S36L	-0.341
N23W	-0.38
R44W	-0.467
E19I	-0.548
A24M	-0.034
C6R	-0.818
K46G	-0.411
I30C	-0.378
T56E	0.033
A24E	-0.052
